# Test system: Botrytis cinerea (B05.10)
# Assay comment: Resazurin antifungal assay of 180 alpha-factor peptide variants towards Botrytis (Example 2)
# Assay type: cell-based
# Recorded conditions: % inhibition of fungal growth, Botrytis conidia, peptide 100 μM, resazurin
Peptide text beside a SMILES is read from it.
Observed property: Inhibition at 100 μM (%)

1. CSCC[C@H](NC(=O)CNC(=O)[C@H](CCC(N)=O)NC(=O)CNC(=O)[C@H](Cc1ccc(O)cc1)NC(=O)[C@H](CCCCN)NC(=O)[C@H](CC(C)C)NC(=O)[C@H](CCC(N)=O)NC(=O)[C@@H](NC(=O)[C@H](Cc1c[nH]c2ccccc12)NC(=O)[C@H](CCC(N)=O)NC(=O)[C@@H](N)CCCCN)C(C)C)C(=O)N[C@@H](Cc1ccc(O)cc1)C(=O)O [compound 123] (H-KQWVQLKYGQGMY-OH; N-terminus and C-terminus assumed)    100
2. CC[C@H](C)[C@H](NC(=O)[C@H](Cc1ccccc1)NC(=O)[C@H](CS)NC(=O)[C@@H](N)CCCCN)C(=O)N[C@@H](CCC(N)=O)C(=O)N[C@@H](CC(C)C)C(=O)N[C@@H](CCCCN)C(=O)N1CCC[C@H]1C(=O)NCC(=O)N[C@@H](CCC(N)=O)C(=O)N1CCC[C@H]1C(=O)N[C@@H](CCSC)C(=O)N[C@@H](Cc1ccc(O)cc1)C(=O)O [compound 140] (H-KCFIQLKPGQPMY-OH; N-terminus and C-terminus assumed)    90.65
3. CSCC[C@H](NC(=O)CNC(=O)[C@H](CCC(N)=O)NC(=O)CNC(=O)[C@H](CC(N)=O)NC(=O)[C@H](CCCCN)NC(=O)[C@H](CC(C)C)NC(=O)[C@H](C)NC(=O)[C@@H](NC(=O)[C@H](Cc1c[nH]c2ccccc12)NC(=O)[C@H](Cc1c[nH]cn1)NC(=O)[C@@H](N)Cc1c[nH]c2ccccc12)C(C)C)C(=O)N[C@@H](Cc1ccc(O)cc1)C(=O)O [compound 23] (H-WHWVALKNGQGMY-OH; N-terminus and C-terminus assumed)    100
4. CSCC[C@H](NC(=O)[C@@H]1CCCN1C(=O)[C@H](CCC(N)=O)NC(=O)CNC(=O)[C@@H]1CCCN1C(=O)[C@H](Cc1c[nH]c2ccccc12)NC(=O)[C@H](CC(C)C)NC(=O)[C@H](CCCCN)NC(=O)[C@H](CC(C)C)NC(=O)[C@H](Cc1c[nH]c2ccccc12)NC(=O)[C@H](Cc1c[nH]cn1)NC(=O)[C@@H](N)CCCCN)C(=O)N[C@@H](Cc1ccc(O)cc1)C(=O)O [compound 14] (H-KHWLKLWPGQPMY-OH; N-terminus and C-terminus assumed)    100

* * *

Below, each of the molecules is paired with its reported Inhibition at 100 μM value.
# Test system: Botrytis cinerea (B05.10)
# Assay comment: Resazurin antifungal assay of 180 alpha-factor peptide variants towards Botrytis (Example 2)
# Format: cell-based
# Recorded conditions: % inhibition of fungal growth, Botrytis conidia, peptide 100 μM, resazurin
# Experimental: The antifungal activity of 180 alpha-factor peptide variants towards Botrytis was tested. Experimental design: […] Fungal conidia were harvested by scraping a Botrytis plate flooded with 1 ml water with 0.1% Tween 80 solution. […] The conidia concentration of the resulting solution was counted using a hemocytometer. […] Peptides were tested for activity against Botrytis, using the resazurin assay. […] Fluorescence was measured at 570/620 nm after 4 h of incubation with resazurin. […]
Peptide text beside a SMILES is read from it.
Observed property: Inhibition at 100 μM (%)

1. CSCC[C@H](NC(=O)[C@@H]1CCCN1C(=O)[C@H](CCC(N)=O)NC(=O)CNC(=O)[C@@H]1CCCN1C(=O)[C@H](CCCCN)NC(=O)[C@H](Cc1ccccc1)NC(=O)[C@H](CCCNC(=N)N)NC(=O)[C@H](CC(C)C)NC(=O)[C@H](Cc1c[nH]c2ccccc12)NC(=O)[C@H](Cc1c[nH]cn1)NC(=O)[C@@H]1CCCN1)C(=O)N[C@@H](Cc1ccc(O)cc1)C(=O)O [compound 5] (H-PHWLRFKPGQPMY-OH; N-terminus and C-terminus assumed)    100
2. CC[C@H](C)[C@H](NC(=O)[C@H](C)NC(=O)[C@H](CC(C)C)NC(=O)[C@H](Cc1c[nH]c2ccccc12)NC(=O)[C@H](Cc1c[nH]cn1)NC(=O)[C@@H](N)Cc1c[nH]c2ccccc12)C(=O)N[C@@H](Cc1ccccc1)C(=O)N[C@@H](CCCNC(=N)N)C(=O)NCC(=O)N[C@@H](CCC(N)=O)C(=O)N1CCC[C@H]1C(=O)N[C@@H](CCSC)C(=O)N[C@@H](Cc1ccc(O)cc1)C(=O)O [compound 57] (H-WHWLAIFRGQPMY-OH; N-terminus and C-terminus assumed)    100

* * *

# System: Botrytis cinerea (B05.10)
# Assay comment: Resazurin antifungal assay of 180 alpha-factor peptide variants towards Botrytis (Example 2)
# Assay type: cell-based
# Recorded conditions: % inhibition of fungal growth, Botrytis conidia, peptide 20 μM, resazurin
Peptide text beside a SMILES is read from it.
Observed property: Inhibition at 20 μM

1) CSCC[C@H](NC(=O)[C@@H]1CCCN1C(=O)[C@H](CCC(N)=O)NC(=O)CNC(=O)[C@H](Cc1ccc(O)cc1)NC(=O)[C@H](CC(N)=O)NC(=O)[C@H](CC(C)C)NC(=O)[C@H](CCCCN)NC(=O)[C@H](CC(C)C)NC(=O)[C@H](Cc1c[nH]c2ccccc12)NC(=O)[C@H](Cc1c[nH]cn1)NC(=O)[C@@H](N)Cc1c[nH]c2ccccc12)C(=O)N[C@@H](Cc1ccc(O)cc1)C(=O)O [compound 108] (H-WHWLKLNYGQPMY-OH; N-terminus and C-terminus assumed)    <90%
2) CSCC[C@H](NC(=O)[C@H](CO)NC(=O)[C@H](CCC(N)=O)NC(=O)CNC(=O)[C@@H]1CCCN1C(=O)[C@H](CCCCN)NC(=O)[C@H](CC(C)C)NC(=O)[C@H](CCCNC(=N)N)NC(=O)[C@H](CC(C)C)NC(=O)[C@H](Cc1ccc(O)cc1)NC(=O)[C@H](Cc1c[nH]cn1)NC(=O)[C@@H](N)Cc1c[nH]c2ccccc12)C(=O)N[C@@H](Cc1ccc(O)cc1)C(=O)O [compound 70] (H-WHYLRLKPGQSMY-OH; N-terminus and C-terminus assumed)    <90%

* * *

# System: Botrytis cinerea (B05.10)
# Assay comment: Resazurin antifungal assay of 23 alpha-factor peptides (dimers, hybrids) towards Botrytis (Example 15, Table 6)
# Type: cell-based
# Recorded conditions: peptide 50 μM; resazurin assay, % inhibition of fungal growth, Botrytis cinerea B05.10
# Description: The antifungal activity of […] alpha-factor peptide variants towards Botrytis was tested. Experimental design: […] Fungal conidia were harvested by scraping a Botrytis plate flooded with 1 ml water with 0.1% Tween 80 solution. […] The conidia concentration of the resulting solution was counted using a hemocytometer. […] Peptides were tested for activity against Botrytis, using the resazurin assay. […] Fluorescence was measured at 570/620 nm after 4 h of incubation with resazurin. […]
Peptide text beside a SMILES is read from it.
Observed property: Inhibition at 50 μM (%)

1. CSCC[C@H](NC(=O)[C@@H]1CCCN1C(=O)[C@H](CCC(N)=O)NC(=O)CNC(=O)[C@@H]1CCCN1C(=O)[C@H](Cc1c[nH]c2ccccc12)NC(=O)[C@H](CC(C)C)NC(=O)[C@H](CCCNC(=N)N)NC(=O)[C@H](CC(C)C)NC(=O)[C@H](CO)NC(=O)[C@H](Cc1c[nH]cn1)NC(=O)[C@@H](N)CCCCN)C(=O)N[C@@H](Cc1ccc(O)cc1)C(=O)O [compound 404] (H-KHSLRLWPGQPMY-OH; N-terminus and C-terminus assumed)    100

* * *

# System: Botrytis cinerea (B05.10)
# Assay comment: Resazurin antifungal assay of 180 alpha-factor peptide variants towards Botrytis (Example 2)
# Assay type: cell-based
# Recorded conditions: % inhibition of fungal growth, Botrytis conidia, peptide 100 μM, resazurin
Peptide text beside a SMILES is read from it.
Observed property: Inhibition at 100 μM

1) CC[C@H](C)[C@H](NC(=O)[C@H](CCC(N)=O)NC(=O)[C@H](CC(C)C)NC(=O)[C@H](Cc1ccccc1)NC(=O)[C@H](Cc1c[nH]cn1)NC(=O)[C@@H](N)Cc1c[nH]c2ccccc12)C(=O)N[C@@H](CCCCN)C(=O)N1CCC[C@H]1C(=O)NCC(=O)N[C@@H](CCC(=O)O)C(=O)N1CCC[C@H]1C(=O)N[C@@H](CCSC)C(=O)N[C@@H](Cc1ccc(O)cc1)C(=O)O [compound 150] (H-WHFLQIKPGEPMY-OH; N-terminus and C-terminus assumed)    <90%

* * *

# Tested on: Botrytis cinerea (B05.10)
# Assay comment: Resazurin antifungal assay of 180 alpha-factor peptide variants towards Botrytis (Example 2)
# Type: cell-based
# Recorded conditions: % inhibition of fungal growth, Botrytis conidia, peptide 100 μM, resazurin
Peptide text beside a SMILES is read from it.
Observed property: Inhibition at 100 μM

1. CSCC[C@H](NC(=O)[C@@H]1CCCN1C(=O)[C@H](CCC(N)=O)NC(=O)CNC(=O)[C@@H]1CCCN1C(=O)[C@H](CCCCN)NC(=O)[C@H](Cc1ccccc1)NC(=O)[C@H](CCCNC(=N)N)NC(=O)[C@H](CC(C)C)NC(=O)[C@@H](NC(=O)[C@H](Cc1c[nH]cn1)NC(=O)[C@@H](N)CCCCN)[C@@H](C)O)C(=O)N[C@@H](Cc1ccc(O)cc1)C(=O)O [compound 80] (H-KHTLRFKPGQPMY-OH; N-terminus and C-terminus assumed)    100%
2. CC[C@H](C)[C@H](NC(=O)[C@H](Cc1c[nH]c2ccccc12)NC(=O)[C@H](Cc1c[nH]cn1)NC(=O)[C@@H]1CCCN1)C(=O)N[C@@H](CCCCN)C(=O)N[C@@H](CC(C)C)C(=O)N[C@@H](Cc1c[nH]cn1)C(=O)N[C@H](C(=O)NCC(=O)N[C@@H](CCC(N)=O)C(=O)N1CCC[C@H]1C(=O)N[C@@H](CCSC)C(=O)N[C@@H](Cc1ccc(O)cc1)C(=O)O)[C@@H](C)O [compound 77] (H-PHWIKLHTGQPMY-OH; N-terminus and C-terminus assumed)    99.74%
3. CSCC[C@H](NC(=O)[C@H](Cc1c[nH]cn1)NC(=O)[C@@H](N)Cc1c[nH]c2ccccc12)C(=O)N[C@@H](CC(C)C)C(=O)N[C@@H](CC(N)=O)C(=O)N[C@@H](Cc1ccccc1)C(=O)N[C@@H](CCCCN)C(=O)N1CCC[C@H]1C(=O)NCC(=O)N[C@@H](CCC(N)=O)C(=O)N1CCC[C@H]1C(=O)N[C@@H](CCSC)C(=O)N[C@@H](Cc1ccc(O)cc1)C(=O)O [compound 118] (H-WHMLNFKPGQPMY-OH; N-terminus and C-terminus assumed)    <90%
4. CSCC[C@H](NC(=O)[C@@H]1CCCN1C(=O)[C@H](CO)NC(=O)CNC(=O)[C@H](CCCNC(=N)N)NC(=O)[C@H](CCCCN)NC(=O)[C@H](CC(C)C)NC(=O)[C@H](CC(N)=O)NC(=O)[C@@H](NC(=O)[C@H](CC(=O)O)NC(=O)[C@H](Cc1c[nH]cn1)NC(=O)[C@@H](N)Cc1c[nH]c2ccccc12)C(C)C)C(=O)N[C@@H](Cc1ccc(O)cc1)C(=O)O [compound 176] (H-WHDVNLKRGSPMY-OH; N-terminus and C-terminus assumed)    <90%
5. CSCC[C@H](NC(=O)[C@@H]1CCCN1C(=O)[C@H](C)NC(=O)CNC(=O)[C@H](CCCNC(=N)N)NC(=O)[C@H](CCCCN)NC(=O)[C@H](CC(C)C)NC(=O)[C@H](CCC(N)=O)NC(=O)[C@@H](NC(=O)[C@H](Cc1c[nH]c2ccccc12)NC(=O)[C@H](Cc1c[nH]cn1)NC(=O)[C@@H]1CCCN1)C(C)C)C(=O)N[C@@H](Cc1ccc(O)cc1)C(=O)O [compound 6] (H-PHWVQLKRGAPMY-OH; N-terminus and C-terminus assumed)    100%

From: patent US20250382332A1
